# System: acute experimental autoimmune encephalomyelitis (aEAE)
# Test Method Notes: Acute experimental autoimmune encephalomyelitis (aEAE) inhibition
# Assay type: in vivo, SJL/N female mice
# Experimental Context: Dose 0.2 mg/kg p.o.; percent inhibition of clinical scores compared to saline treated controls
# reported % aEAE Inhibition; entries follow
Could you give me the number in %? Just the number is fine.

Some molecules with known % aEAE Inhibition results, for comparison:
Molecule	Measure Unit	% aEAE Inhibition
CN(C(=O)c1c(O)c2c(Cl)cccc2n(C)c1=O)c1ccc(F)cc1F [Compound B]	%	59
CN(C(=O)c1c(O)c2c(Cl)cccc2n(C)c1=O)c1ccccc1 [Compound C]	%	92
COc1cccc2c1c(O)c(C(=O)N(C)c1ccc(C(F)(F)F)cc1)c(=O)n2C [Compound A]	%	66

// switching to the query molecule
Given the entry CN(C(=O)c1c(O)c2ccccc2n(C)c1=O)c1ccccc1 [Compound D] , what % aEAE Inhibition was observed with acute experimental autoimmune encephalomyelitis (aEAE)?
35
